# measurementProtocol: probe aLefty2 binding to arrayed compounds – biochemical, biotinylated probe, 635/667 nm fluorescence, primary screen (AID 1094);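 note: score merges spot fluorescence near 667 nm with spot signal-to-noise ratio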
# studyConditions: small-molecule microarray, higher = more signal
Items are presented alongside their recorded composite z-score.
Please give only the number in your answer, with no unit.

Sample records with composite z-score:
molecule	experimentalReadout	value
COCC(=C=CC[C@H](O)c1ccc(OCCO)cc1)CCO	composite z-score	0.106
[N-]=[N+]=Nc1ccccc1C[C@@]1(C(=O)NCCN2CCOCC2)N=C(c2ccc(OCCCO)cc2)O[C@@H]1c1ccccc1N=[N+]=[N-]	composite z-score	0.0672
CO[C@H]1O[C@H](CO)[C@@H](OC(=O)Nc2ccc(Br)cc2)[C@@H]2OC(=O)[C@@H](Cc3ccccc3)C/C=C/C[C@H](Cc3ccccc3)C(=O)O[C@@H]12	composite z-score	0.0378
C=CCOC(=O)[C@@H]1[C@H]2C(=O)O[C@H](c3ccccc3)[C@H](c3ccccc3)N2[C@H](c2ccc(OCCOC(=O)[C@@H]3C[C@@H]4C(=O)N[C@@H](CCCC[N+](C)(C)C)C(=O)N4[C@@H]3c3ccc(O)cc3)cc2)[C@@]12C(=O)Nc1ccc(I)cc12	composite z-score	-0.103
C=C[C@H]1C(C(=O)OCC)=CC[C@@H](c2ccccc2)N1S(=O)(=O)c1ccc(C)cc1	composite z-score	0.174

Look at this molecule and give its reported composite z-score. CCCCCN1CC=CC23O[C@@H]4C=CCCOC(=O)C4[C@H]2C(=O)N(CCCCCCO)[C@@H]3C1=O (some centres undefined)
-0.423

Look at this molecule and give its reported composite z-score. CCCCC(=C=CC[C@H](O)c1ccc(OCCO)cc1)CCO
-0.179

Look at this molecule and give its reported composite z-score. COc1ccc(C#Cc2ccc3c(c2)[C@]2(C(=O)N3)[C@H](c3ccc(O)cc3)N3[C@H](c4ccccc4)[C@H](c4ccccc4)OC(=O)[C@H]3[C@@H]2C(=O)Nc2nc3ccccc3s2)cc1
0.334
